pIC50: −log10 of the molar value.
Header: pIC50 / GCK (Homo sapiens, UniProt Q12851) / multiple publications

// known answers, use as guide
{"mol": "CCN1CCN(c2cccc(Nc3ncc4c(n3)N(C)C(=O)N(c3cc(NC(=O)c5cccc(C(F)(F)F)c5)ccc3C)C4)c2)CC1", "study target": "GCK (Homo sapiens, UniProt Q12851)", "pIC50": "> 7.52"}
{"mol": "Cc1ccc(-c2ncc(-c3cccc(F)c3F)[nH]2)cc1N1Cc2cnc(NC3CC3)nc2N(C)C1=O", "study target": "GCK (Homo sapiens, UniProt Q12851)", "pIC50": "< 5.00"}
{"mol": "Cc1ccc(NC(=O)c2cccc(C(F)(F)F)c2)cc1N1Cc2cnc(Nc3ccccc3)nc2N(C)C1=O", "study target": "GCK (Homo sapiens, UniProt Q12851)", "pIC50": "7.00 to 7.35"}
{"mol": "Cc1ccc(Nc2ncc3cc(-c4cc(NC(=O)c5cccc(C(F)(F)F)c5)ccc4C)n(C)c(=O)c3n2)cn1", "study target": "GCK (Homo sapiens, UniProt Q12851)", "pIC50": "6.00 to 7.00"}
{"mol": "Cc1ccc(NC(=O)c2cccc(C(F)(F)F)c2)cc1N1Cc2cnc(Nc3cnn(C)c3)nc2N(C)C1=O", "study target": "GCK (Homo sapiens, UniProt Q12851)", "pIC50": "> 7.52"}

Q: Quote GCK (Homo sapiens, UniProt Q12851) pIC50 for entry Cc1ccc(Nc2ncc3cc(-c4cc(NC(=O)c5cccc(C(F)(F)F)c5)ccc4C)ncc3n2)cn1 .
A: 6.00 to 7.00

Q: Quote GCK (Homo sapiens, UniProt Q12851) pIC50 for entry CCCn1/c(=N/C(=O)c2cccc(C(N)=O)c2)[nH]c2ccccc21 .
A: 6.37

Q: Quote GCK (Homo sapiens, UniProt Q12851) pIC50 for entry CCc1nc(-c2cc(NC(=O)c3cccc(C(F)(F)F)c3)ccc2C)cc2cnc(Nc3ccc(C)nc3)nc12 .
A: < 5.00

Q: Quote GCK (Homo sapiens, UniProt Q12851) pIC50 for entry COc1ccccc1-c1cnc(-c2ccc(C)c(N3Cc4cnc(Nc5ccc(N6CCN(C(C)=O)CC6)nc5)nc4N(C)C3=O)c2)[nH]1 .
A: 5.00 to 6.00

Q: Quote GCK (Homo sapiens, UniProt Q12851) pIC50 for entry Cc1ccc(NC(=O)c2cccc(C(F)(F)F)c2)cc1-c1cc2cnc(NC3CC3)nc2c(=O)[nH]1 .
A: 6.00 to 7.00

Q: Quote GCK (Homo sapiens, UniProt Q12851) pIC50 for entry COc1ccccc1-c1cnc(-c2ccc(C)c(N3Cc4cnc(Nc5ccc(C)nc5)nc4N(C)C3=O)c2)[nH]1 .
A: 6.00 to 7.00

Q: Quote GCK (Homo sapiens, UniProt Q12851) pIC50 for entry CCN1CCN(c2ccc(Nc3ncc4c(n3)N(C)C(=O)N(c3cc(NC(=O)c5cccc(C(F)(F)F)c5)ccc3C)C4)cn2)CC1 .
A: > 7.52

Q: Quote GCK (Homo sapiens, UniProt Q12851) pIC50 for entry COc1ccccc1-c1cnc(-c2ccc(C)c(N3Cc4cnc(Nc5cnn(C)c5)nc4N(C)C3=O)c2)[nH]1 .
A: 6.00 to 7.00

Q: Quote GCK (Homo sapiens, UniProt Q12851) pIC50 for entry Cc1ccc(-c2ncc(-c3ccccc3OC(F)(F)F)[nH]2)cc1N1Cc2cnc(Nc3ccc(N4CCOCC4)cc3)nc2N(C)C1=O .
A: 5.00 to 6.00

Q: Quote GCK (Homo sapiens, UniProt Q12851) pIC50 for entry Cc1ccc(NC(=O)c2cccc(C(F)(F)F)c2)cc1-c1cc2cnc(NC3CC3)nc2cn1 .
A: 6.00 to 7.00

Q: Quote GCK (Homo sapiens, UniProt Q12851) pIC50 for entry Cc1ccc(NC(=O)c2cccc(C(F)(F)F)c2)cc1N1Cc2cnc(NC3CC3)nc2N(C)C1=O .
A: 7.35 to 7.52
